Tested on: A549 (lung adenocarcinoma)
Assay: MTT antiproliferative assay, A549
Assay type: cell-based
Details: Homo sapiens, A549, 10 μM, 48 or 72 h, read-out: inhibition of cell growth, A549
Procedure: The antiproliferative activity of a test compound was determined in cell lines: MDA-MB-231 (breast cancer), HepG2 (liver cancer), SW620 (colon cancer), A375 (malignant melanoma), A431 (epidermoid carcinoma), A549 (lung adenocarcinoma), and HeLa (ovarian cancer). […] Briefly cells were seeded in a 96 well plate at a density of 2,000-5,000 cells/well. […] The plate was shaken for 15-20 min and the absorbance value of each well was determined using a multi-well plate reader at 490 nm. […]
In this section we review reported inhibition at 10 µM values for a set of compounds.

# compound, inhibition at 10 µM
rows = [
    ("[2H]C([2H])([2H])O[C@]1(C)C(=O)C(=O)C=C2C1=CC=C1[C@@]2(C)CC[C@@]2(C)[C@@H]3C[C@](C)(C(=O)O)CC[C@]3(C)CC[C@]12C", "30 to 50%"),
    ("CO[C@@]1(C)C2=CC=C3[C@@](C)(CC[C@@]4(C)[C@@H]5C[C@](C)(CO)CC[C@]5(C)CC[C@]34C)C2=CC(=O)[C@@H]1O", "30 to 50%"),
    ("CO[C@@]1(C)C2=CC=C3[C@@](C)(CC[C@@]4(C)[C@@H]5C[C@](C)(C(N)=O)CC[C@]5(C)CC[C@]34C)C2=CC(=O)[C@@H]1O", "50 to 80%"),
    ("COC(=O)[C@]1(C)CC[C@]2(C)CC[C@]3(C)C4=CC=C5C(=C/C(=C\\C#N)C(=O)C5(C)O)[C@]4(C)CC[C@@]3(C)[C@@H]2C1 (stereo partly drawn)", "< 30%"),
    ("COC(=O)[C@]1(C)CC[C@]2(C)CC[C@]3(C)C4=CC=C5C(=CC(=O)C(=O)C5(C)c5c[nH]c6ccccc56)[C@]4(C)CC[C@@]3(C)[C@@H]2C1 (stereo partly drawn)", "50 to 80%"),
    ("CO[C@@]1(C)C2=CC=C3[C@@](C)(CC[C@@]4(C)[C@@H]5C[C@](C)(C(=O)O)CC[C@]5(C)CC[C@]34C)C2=CC(=O)[C@@H]1O", "< 30%"),
    ("CO[C@]1(C)C(=O)C(=O)C=C2C1=CC=C1[C@@]2(C)CC[C@@]2(C)[C@@H]3C[C@](C)(C(=O)N(C)C)CC[C@]3(C)CC[C@]12C", "≥ 80%"),
    ("COC1(C)C2=CC=C3[C@@](C)(CC[C@@]4(C)[C@@H]5C[C@](C)(C(=O)O)CC[C@]5(C)CC[C@]34C)C2=CC(=O)C1CC#N (stereo in doubt)", "< 30%"),
    ("CNC1(O)C(=O)C=C2C(=CC=C3[C@@]2(C)CC[C@@]2(C)[C@@H]4C[C@](C)(C(=O)OC)CC[C@]4(C)CC[C@]32C)[C@]1(C)OC (stereo partly drawn)", "< 30%"),
]

====

The following molecules have recorded pKd on UniProt:P22736.
Sequence (P22736 360-595 limits assumed, species assumed): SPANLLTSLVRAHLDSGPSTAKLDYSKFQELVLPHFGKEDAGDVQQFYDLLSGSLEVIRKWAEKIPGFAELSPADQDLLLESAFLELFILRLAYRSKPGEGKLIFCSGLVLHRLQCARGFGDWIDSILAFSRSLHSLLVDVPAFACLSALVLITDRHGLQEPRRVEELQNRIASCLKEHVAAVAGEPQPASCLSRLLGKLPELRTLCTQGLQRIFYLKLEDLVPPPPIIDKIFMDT
pKd: −log10 of the molar value.

# query_smiles, pKd
data = [
    ("CO[C@]1(C)C(=O)C(=O)C=C2C1=CC=C1[C@@]2(C)CC[C@@]2(C)[C@@H]3C[C@](C)(C(N)=O)CC[C@]3(C)CC[C@]12C", 6.05),
    ("CNC(=O)[C@]1(C)CC[C@]2(C)CC[C@]3(C)C4=CC=C5C(=CC(=O)C(=O)[C@@]5(C)OC)[C@]4(C)CC[C@@]3(C)[C@@H]2C1", 6.25),
]

====

System: HepG2 (liver cancer)
Assay: MTT antiproliferative assay, HepG2
Assay type: cell-based
Conditions: Homo sapiens, HepG2, 10 μM, 48 or 72 h, read-out: inhibition of cell growth, HepG2
In this section we review reported inhibition at 10 µM values for a set of compounds.

# query_smiles, inhibition at 10 µM
data = [
    ("CCCNC(=O)[C@]1(C)CC[C@]2(C)CC[C@]3(C)C4=CC=C5C(=CC(=O)C(=O)[C@@]5(C)OC)[C@]4(C)CC[C@@]3(C)[C@@H]2C1", "≥ 80%"),
    ("CO[C@@]1(C)C2=CC=C3[C@@](C)(CC[C@@]4(C)[C@@H]5C[C@](C)(C(=O)O)CC[C@]5(C)CC[C@]34C)C2=CC(=O)[C@@H]1O", "30 to 50%"),
    ("CCCC(=O)O[C@H]1C(=O)C=C2C(=CC=C3[C@@]2(C)CC[C@@]2(C)[C@@H]4C[C@](C)(C(=O)NC)CC[C@]4(C)CC[C@]32C)[C@]1(C)OC", "≥ 80%"),
]

====

Test system: A549 (lung adenocarcinoma)
Assay: MTT antiproliferative assay, A549
Type: cell-based
Conditions: Homo sapiens, A549, 10 μM, 48 or 72 h, read-out: inhibition of cell growth, A549
In this section we review reported inhibition at 10 µM values for a set of compounds.
outcome_measure: inhibition at 10 µM

# compound, result
rows = [
    ("CNC(=O)[C@]1(C)CC[C@]2(C)CC[C@]3(C)C4=CC=C5C(=CC(=O)C(=O)[C@@]5(C)OC)[C@]4(C)CC[C@@]3(C)[C@@H]2C1 [Compound A7]", "30 to 50%"),
    ("COC(=O)[C@]1(C)CC[C@]2(C)CC[C@]3(C)C4=CC=C5C(=CC(=O)C(=O)[C@@]5(C)OC)[C@]4(C)CC[C@@]3(C)[C@@H]2C1 [Compound A5]", "30 to 50%"),
    ("CCCNC(=O)[C@]1(C)CC[C@]2(C)CC[C@]3(C)C4=CC=C5C(=CC(=O)C(=O)[C@@]5(C)OC)[C@]4(C)CC[C@@]3(C)[C@@H]2C1 [Compound A12]", "≥ 80%"),
]

====

Test system: A431 (epidermoid carcinoma)
Assay: MTT antiproliferative assay, A431
Format: cell-based
Details: Homo sapiens, A-431, A431, 10 μM, 48 or 72 h, read-out: inhibition of cell growth, A431
outcome_measure: inhibition at 10 µM

# compound, result
measured = [
    ("CO[C@@]1(C)C2CCC3[C@@](C)(CC[C@@]4(C)[C@@H]5C[C@](C)(C(=O)O)CC[C@]5(C)CC[C@]34C)C2=CC(=O)[C@@H]1O (some centres unmarked)", "< 30%"),
    ("CO[C@@]1(C)C2=CC=C3[C@@](C)(CC[C@@]4(C)[C@@H]5C[C@](C)(C(=O)O)CC[C@]5(C)CC[C@]34C)C2=CC(=O)C1=NNC(C)=O", "< 30%"),
    ("CO[C@]1(C)C(=O)C(=O)C=C2C1=CC=C1[C@@]2(C)CC[C@@]2(C)[C@@H]3C[C@](C)(C(=O)On4nnc5ccccc54)CC[C@]3(C)CC[C@]12C", "50 to 80%"),
    ("CCO[C@]1(C)C(=O)C(=O)C=C2C1=CC=C1[C@@]2(C)CC[C@@]2(C)[C@@H]3C[C@](C)(C(=O)O)CC[C@]3(C)CC[C@]12C", "50 to 80%"),
    ("CO[C@@]1(C)C2=CC=C3[C@@](C)(CC[C@@]4(C)[C@@H]5C[C@](C)(C(=O)O)CC[C@]5(C)CC[C@]34C)C2=CC(=O)/C1=C\\C#N", "≥ 80%"),
    ("COC(=O)[C@]1(C)CC[C@]2(C)CC[C@]3(C)C4=CC=C5C(=CC(=O)C(=O)C5(C)c5c[nH]c6ccccc56)[C@]4(C)CC[C@@]3(C)[C@@H]2C1 (some centres unmarked)", "≥ 80%"),
    ("CO[C@@]1(C)C2=CC=C3[C@@](C)(CC[C@@]4(C)[C@@H]5C[C@](C)(C(=O)O)CC[C@]5(C)CC[C@]34C)C2=CC(O)C1O (some centres unmarked)", "< 30%"),
    ("CCCC(=O)O[C@H]1C(=O)C=C2C(=CC=C3[C@@]2(C)CC[C@@]2(C)[C@@H]4C[C@](C)(C(=O)NC)CC[C@]4(C)CC[C@]32C)[C@]1(C)OC", "≥ 80%"),
    ("CO[C@@]1(C)C2=CC=C3[C@@](C)(CC[C@@]4(C)[C@@H]5C[C@](C)(C(N)=O)CC[C@]5(C)CC[C@]34C)C2=CC(=O)[C@@H]1O", "≥ 80%"),
    ("CO[C@]1(C)C(=O)C(=O)C=C2C1=CC=C1[C@@]2(C)CC[C@@]2(C)[C@@H]3C[C@](C)(C(=O)O)CC[C@]3(C)CC[C@]12C", "50 to 80%"),
    ("CO[C@]1(C)C(=O)C(=O)C=C2C1=CC=C1[C@@]2(C)CC[C@@]2(C)[C@@H]3C[C@](C)(C(=O)N(C)C)CC[C@]3(C)CC[C@]12C", "≥ 80%"),
    ("CCNC(=O)[C@]1(C)CC[C@]2(C)CC[C@]3(C)C4=CC=C5C(=CC(=O)C(=O)[C@@]5(C)OC)[C@]4(C)CC[C@@]3(C)[C@@H]2C1", "50 to 80%"),
    ("CO[C@]1(C)C(=O)C(=O)C=C2C1=CC=C1[C@@]2(C)CC[C@@]2(C)[C@@H]3C[C@](C)(C(=O)NO)CC[C@]3(C)CC[C@]12C", "≥ 80%"),
    ("CO[C@@]1(C)C2=CC=C3[C@@](C)(CC[C@@]4(C)[C@@H]5C[C@](C)(C(=O)O)CC[C@]5(C)CC[C@]34C)C2=CC(=O)/C1=C/C#N", "50 to 80%"),
    ("COC(=O)[C@]1(C)CC[C@]2(C)CC[C@]3(C)C4=CC=C5C(=CC(=O)C(O)C5(C)O)[C@]4(C)CC[C@@]3(C)[C@@H]2C1 (some centres unmarked)", "≥ 80%"),
    ("COC1(C)C2=CC=C3[C@@](C)(CC[C@@]4(C)[C@@H]5C[C@](C)(C(=O)O)CC[C@]5(C)CC[C@]34C)C2=CC(=O)C1CC#N (stereo in doubt)", "30 to 50%"),
    ("CCCNC(=O)[C@]1(C)CC[C@]2(C)CC[C@]3(C)C4=CC=C5C(=CC(=O)C(=O)[C@@]5(C)OC)[C@]4(C)CC[C@@]3(C)[C@@H]2C1", "≥ 80%"),
    ("CO[C@@]1(C)C2=CC=C3[C@@](C)(CC[C@@]4(C)[C@@H]5C[C@](C)(C=O)CC[C@]5(C)CC[C@]34C)C2=CC(=O)[C@@H]1O", "≥ 80%"),
    ("CO[C@]1(C)C(=O)C(=O)C=C2C1=CC=C1[C@@]2(C)CC[C@@]2(C)[C@@H]3C[C@](C)(C(N)=O)CC[C@]3(C)CC[C@]12C", "50 to 80%"),
    ("CO[C@@]1(C)C2=CC=C3[C@@](C)(CC[C@@]4(C)[C@@H]5C[C@](C)(C(=O)NO)CC[C@]5(C)CC[C@]34C)C2=CC2(O)OCCN=C21 (some centres unmarked)", "≥ 80%"),
]
